A collection of compounds and their measured TGI
- System: MOLT-4 leukemia
- procedure-summary: NCI tumour cell line growth inhibition, 48 h
measure-name: TGI

{"compound": "N#Cc1c[nH]n2ccnc12", "value": "> 100 µM"}
{"compound": "Cn1c(C(C#N)c2cc(Cl)ncn2)nc2ccccc21 (configuration not stated)", "value": "> 100 µM"}
{"compound": "CC(=O)NNc1nc(C)c(C(/C=C/c2ccc(Cl)cc2)=N\\NS(=O)(=O)c2ccc(C)cc2)s1", "value": "> 100 µM"}
{"compound": "Cc1cc(Cc2cc(C)c(NC(=O)C(=O)C3C(=O)NC(=S)NC3=O)c(C(C)C)c2)cc(C(C)C)c1NC(=O)C(=O)C1C(=O)NC(=S)NC1=O", "value": "> 100 µM"}
{"compound": "NC(=O)N/N=C(\\Cc1nc2ccc(C(=O)c3ccccc3)cc2[nH]c1=O)C(=O)Nc1ccc(Br)cc1", "value": "> 100 µM"}
{"compound": "Cn1c(-c2csc(-c3ccc(Cl)cc3)n2)n[nH]c1=S", "value": "> 100 µM"}
{"compound": "COC(=O)C1=C(C(=O)OC)C23C=CC=CC24C(C(=O)OC)=C(C(=O)OC)C4C1C3 (configuration not stated)", "value": "> 100 µM"}
{"compound": "CN1CCN(c2ccc(-c3cnc4c(-c5csc6ccccc56)cnn4c3)cc2)CC1", "value": "> 15 µM"}
{"compound": "N#CC1C(=O)Nc2sc(C(=O)c3ccc(Br)cc3)c(N)c2C12CCCCC2 (configuration not stated)", "value": "> 100 µM"}
{"compound": "N#C/C(=C/C=C(\\Cl)c1ccc(Cl)cc1)C(N)=O", "value": "> 39.8 µM"}
{"compound": "CCOP(=O)(CC(=O)C1=C(O)C(CCCNC(=O)OC(C)(C)C)N(Cc2ccc(OC)c(OC)c2)C1=O)OCC (configuration not stated)", "value": "> 100 µM"}
{"compound": "COC1=CC(=O)C(O)=C(C[C@@]2(C)[C@@H]3CCC[C@H](COC(=O)CCCCCNC(=O)OC(C)(C)C)[C@@]3(C)CC[C@@H]2C)C1=O", "value": "> 10 µM"}
{"compound": "O=C(CCCCCCCCC(=O)NN1C(=O)/C(=C\\c2ccc(O)c(O)c2)SC1c1c(O)ccc2ccccc12)NN1C(=O)C(=Cc2ccc(O)c(O)c2)SC1c1c(O)ccc2ccccc12 (configuration not stated)", "value": "> 29.8 µM"}
{"compound": "COc1ccc(CNc2nc(NCc3ccc(OC)cc3)nc(Nc3ccccc3)n2)cc1", "value": "> 100 µM"}
{"compound": "C/C=C(\\C)C(=O)O[C@@H]1C(O)[C@H]2OC(COC(=O)CCC(=O)CCCCCC[C@H](CCCCC)O[C@@H]3OC(C)[C@H](OC(C)=O)C(O)[C@H]3O2)[C@H]1OC(=O)/C=C/c1ccccc1 (some centres not stated)", "value": "> 100 µM"}
{"compound": "CCC(C(=O)[O-])C(=O)[O-].CCC(C(=O)[O-])C(=O)[O-].N.N.NCCCCCN.[Pt+4].[Pt+4]", "value": "> 100 µM"}
{"compound": "COc1ccc(-c2cc(-c3ccc(Nc4ccnc5cc(C(F)(F)F)ccc45)cc3)[nH]c(=O)c2C#N)c2ccccc12", "value": "> 100 µM"}
{"compound": "CC(C)CCCC(C)[C@H]1CC[C@H]2[C@@H]3CC[C@H]4C[C@@H](CCC=C(c5cc(Cl)c(O)c(C(=O)OC(C)(C)C)c5)c5cc(Cl)c(O)c(C(=O)OC(C)(C)C)c5)CC[C@]4(C)[C@H]3CC[C@]12C (some centres not stated)", "value": "> 50 µM"}
{"compound": "CC1=C(C(=O)OCCO[N+](=O)[O-])C(c2ccccc2C(F)(F)F)C(C(=O)OC(C)C)=C(C)N1 (configuration not stated)", "value": "> 100 µM"}
{"compound": "O=C(O)CCC1COc2ccccc2O1 (configuration not stated)", "value": "> 10 µM"}
{"compound": "C=C1CC/C=C(/C(=O)O)CC[C@H]2[C@@H]1CC2(C)C", "value": "> 100 µM"}
{"compound": "COc1ccc2cc(C(=O)/C=C/c3cccc(Cl)c3Cl)ccc2c1", "value": "> 100 µM"}
